# Test system: MCF-7
# assay remarks: MTT proliferation assay, MCF-7
# Type: cell-based, human
# condition label: Homo sapiens, MCF7, MCF-7; MTT; mean of three independent experiments
pIC50: −log10 of the molar value.
readout label: pIC50

For record `Cc1c(F)c(N)c2c(=O)cc(-c3ccc(N)c(F)c3)oc2c1F` the listed pIC50 is 7.70 to 7.80

* * *

# Test system: ER+MDA-MB-231 cells
# assay remarks: aminoflavone sensitivity of MDA-MB-231 stably transfected with human estrogen receptor-α
# Assay type: cell-based
# condition label: MDA-MB-231 stably transfected with human estrogen receptor-α
readout label: IC50

Per the records, this molecule ( `Cc1c(F)c(N)c2c(=O)cc(-c3ccc(N)c(F)c3)oc2c1F` ) has IC50 equal to 5 µM

* * *

# Test system: MCF10A
# assay remarks: MTT proliferation assay, MCF10A
# Format: cell-based, human
# condition label: Homo sapiens, MCF-10A
# Protocol: Table 1 below summarizes the results of the MTT (methyl tetrazolium) tests that were performed to assay cell growth in a panel breast cell lines and their characteristics. Both, MCF-7Her2-18 and MCF-7TAM1 express estrogen receptor. […] The ER(−) cells MDA-MB-231 and MCF10A with nuclear AhR are several log-fold less sensitive to aminoflavone (Table 1, FIG. 4). These observations confirm that aminoflavone is valuable in patients who have lost clinical benefit from estrogen receptor antagonists. […]
readout label: IC50

Record summary for Cc1c(F)c(N)c2c(=O)cc(-c3ccc(N)c(F)c3)oc2c1F [aminoflavone] : reported IC50 = 3 to 25 µM

* * *

# Test system: T47D
# assay remarks: MTT proliferation assay, T47D
# Format: cell-based, human
# condition label: Homo sapiens, MTT
readout label: IC50

Value of measured IC50 for the entry `Cc1c(F)c(N)c2c(=O)cc(-c3ccc(N)c(F)c3)oc2c1F` : 14 nM

* * *

# Tested on: MCF-7 HER2-18
# assay remarks: MTT proliferation assay, MCF-7 HER2-18
# Assay type: cell-based, human
# condition label: Homo sapiens, mean of three independent experiments
readout label: IC50

Just so you know, measured IC50 for Cc1c(F)c(N)c2c(=O)cc(-c3ccc(N)c(F)c3)oc2c1F [aminoflavone] came out at 16 to 20 nM

This collection of values is drawn from patent US20100260753A1.
